// Sensitivity, 30 cells lookup, one value per entry
Tested on: HPV-16
ASSAY_TEXT: qPCR sensitivity against HPV-HNSCC tumor samples diluted among 10 ng normal human DNA
ASSAY_CONDITIONS: tumor DNA dilution, fraction of 32 samples

MOLECULE	Sensitivity, 30 cells
HR E5L2-4: primer/probe set for junction between E5 and L2, SEQ ID NO: 55-57 (same as SEQ ID NO: 4-6) (nucleic acid, chemistry not given here) DNA 1: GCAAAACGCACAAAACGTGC DNA 2: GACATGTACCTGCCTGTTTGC DNA 3: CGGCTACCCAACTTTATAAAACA	0.844
BR E6-1: HPV-16 E6 region (172-373 bp) primer/probe set, SEQ ID NO: 58-60 (nucleic acid, chemistry not given here) DNA 1: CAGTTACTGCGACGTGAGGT DNA 2: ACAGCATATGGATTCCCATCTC DNA 3: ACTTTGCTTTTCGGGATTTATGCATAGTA	0.750
E6: previously designed (historical) HPV-16 E6 primers and Taqman probe, SEQ ID NO: 7-9, positive control (nucleic acid, Taqman probe, labels not given here) DNA 1: TCAGGACCCACAGGAGCG DNA 2: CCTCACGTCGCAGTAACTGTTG DNA 3: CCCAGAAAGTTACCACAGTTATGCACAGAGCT	0.844
